system: T. brucei; assay: Growth inhibition assay of T. brucei cell cultures (Alamar Blue, 48 h); assay type: cell-based; settings: Trypanosoma brucei; read-out: B) T. brucei EC50
measured-attribute: pEC50
Scale: negative log10 of molar concentration, which is what pEC50 denotes.

Data request, read-out pEC50, for Clc1cc(Cl)cc(CN[C@@H]2CCCN(c3nc4nc(Cl)ccc4[nH]3)C2)c1 6.00

Name the recorded pEC50 for Clc1cc(Cl)cc(CNCCc2nc3ccc(Cl)nc3[nH]2)c1 . 5.93

Please report the recorded pEC50 for N[C@@H](CC(=O)NCc1nc2ccccc2[nH]1)Cc1ccc(Cl)cc1Cl . 6.07

---

MetRS (T. brucei) (Trypanosoma brucei brucei, UniProt Q38C91) pIC50 data
Sequence (Q38C91 entry or part of it): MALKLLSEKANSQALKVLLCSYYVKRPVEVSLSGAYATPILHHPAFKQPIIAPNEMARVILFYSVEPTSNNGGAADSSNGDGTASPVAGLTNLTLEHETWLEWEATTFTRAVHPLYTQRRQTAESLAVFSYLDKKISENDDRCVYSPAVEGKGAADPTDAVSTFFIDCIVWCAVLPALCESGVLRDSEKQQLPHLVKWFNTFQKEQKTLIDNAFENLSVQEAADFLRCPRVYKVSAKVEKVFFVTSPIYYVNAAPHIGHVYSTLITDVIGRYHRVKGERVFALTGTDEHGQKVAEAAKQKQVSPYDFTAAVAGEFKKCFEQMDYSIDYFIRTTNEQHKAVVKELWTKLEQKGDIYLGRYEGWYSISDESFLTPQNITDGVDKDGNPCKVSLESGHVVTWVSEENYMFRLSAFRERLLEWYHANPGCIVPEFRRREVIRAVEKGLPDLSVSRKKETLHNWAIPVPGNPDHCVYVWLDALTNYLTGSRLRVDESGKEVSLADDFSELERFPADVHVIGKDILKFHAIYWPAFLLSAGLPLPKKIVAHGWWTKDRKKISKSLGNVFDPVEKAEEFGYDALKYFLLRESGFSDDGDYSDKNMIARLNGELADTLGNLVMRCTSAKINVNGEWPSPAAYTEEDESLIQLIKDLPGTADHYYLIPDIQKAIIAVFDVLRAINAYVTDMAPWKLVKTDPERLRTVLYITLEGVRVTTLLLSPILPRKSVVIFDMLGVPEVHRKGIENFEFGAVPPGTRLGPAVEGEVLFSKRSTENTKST
FYI, pIC50 means -log10 of a concentration in mol per litre.

Use the examples below as a reference point.
COC(=O)N(CCCNc1nc2ccc(F)nc2[nH]1)Cc1cc(Cl)cc(Cl)c1 [Compound 1964] ... 7.77
O=C(NCc1nc2cccnc2[nH]1)OCCc1ccc(Cl)cc1Cl [Compound 1706] ... 7.42
O=C(Cc1ccc(Cl)cc1Cl)NCc1nc2ccc(Br)cc2[nH]1 [Compound 1874] ... 7.29

Query the reported pIC50 for MetRS (T. brucei) (Trypanosoma brucei brucei, UniProt Q38C91); item: O=C(NCc1nc2ccc(Cl)nc2[nH]1)Nc1cc(Cl)cc(Cl)c1 [Compound 1890] 7.11

Fill in the recorded pIC50 for this molecule, with MetRS (T. brucei) (Trypanosoma brucei brucei, UniProt Q38C91) as test system: O=C(Cc1ccc(Cl)cc1Cl)NCc1nc2ncc(Cl)cc2[nH]1 [Compound 1878] 6.71

Please provide the recorded pIC50 for O=C(/C=C/Oc1ccc(Cl)cc1Cl)NCc1nc2ccccc2[nH]1 [Compound 1729] , tested on MetRS (T. brucei) (Trypanosoma brucei brucei, UniProt Q38C91). 7.77

Query pIC50 on MetRS (T. brucei) (Trypanosoma brucei brucei, UniProt Q38C91) for COc1ccc(Oc2nc(O)nc(NCc3nc4ccc(F)nc4[nH]3)n2)c(Cl)c1 [Compound 1885] 5.82

What pIC50 appears in the records for this molecule with MetRS (T. brucei) (Trypanosoma brucei brucei, UniProt Q38C91)? CC(=O)N(Cc1cc(Cl)cc(Cl)c1)C1CCCC(c2nc3cc(F)ccc3[nH]2)C1 (stereo not drawn) [Compound 1860] 5.16

Can you look up pIC50 on MetRS (T. brucei) (Trypanosoma brucei brucei, UniProt Q38C91) for CC(C)Oc1c(Cl)cc(Cl)cc1CN[C@H]1CCCN(c2nc3nc(Cl)ccc3[nH]2)C1 [Compound 1931] ? 6.52

API: value(readout= pIC50, system= MetRS (T. brucei) (Trypanosoma brucei brucei, UniProt Q38C91), query= CCC(=O)N(CCN(C)c1nc2nc(Cl)ccc2[nH]1)Cc1cc(Cl)cc(Cl)c1 [Compound 1942] ) 7.70

---

target: MetRS (T. brucei) (Trypanosoma brucei brucei, UniProt Q38C91)
The recorded IC50 of each item maps onto one of these classes: lower (below 40 nM), middle (40 nM to below 700 nM), upper (700 nM or more)

The entry to classify is Clc1cc(Cl)cc(CN2CCN(c3nc4nc(Cl)ccc4[nH]3)CC2)c1 ; which class holds it? upper

Into which category would you place Clc1cc(Cl)cc(CNC2CN(c3nc4nc(Cl)c(Br)cc4[nH]3)C2)c1 ? upper

// return the class label for O=C1CN(Cc2ccc(Cl)cc2Cl)CCN1Cc1nc2ccccc2[nH]1 upper

Could you place Clc1cc(Cl)cc(CNCCc2nc3ccc(Cl)cc3[nH]2)c1 in its proper category? Many thanks. middle

Band for C[C@@H](CNCc1cc(Cl)cc(Cl)c1)CNc1nc2nc(F)ccc2[nH]1 ? lower

Each compound maps to one class by IC50. Which class for Cc1ccc2nc(CC(C)NCc3cc(Cl)cc(Cl)c3)[nH]c2c1 (stereo not shown) ? middle

Which category does the recorded IC50 put O=C(Cc1cc(Cl)cc(Cl)c1)NCc1nc2ccc(Cl)cc2[nH]1 in? middle

---

Property: EC50; scope: individual molecules
tested on: T. brucei; experiment: Growth inhibition assay of T. brucei cell cultures (Alamar Blue, 48 h); format: cell-based; conditions: Trypanosoma brucei; read-out: B) T. brucei EC50

CC(=O)N(Cc1cc(Cl)cc(Cl)c1)[C@@H]1CCC[C@H](c2nc3nc(Cl)ccc3[nH]2)C1 [Compound 1859] ... > 20 µM
O=C(NCc1cc(Cl)cc(Cl)c1)N1CCCC(c2nc3nc(Cl)ccc3[nH]2)C1 (centres unmarked) [Compound 1785] ... > 20 µM

Need EC50, item COC(=O)[C@H](Cc1ccc(Cl)cc1Cl)NC(=O)NCc1nc2ccccc2[nH]1 [Compound 1755] > 10 µM

Quick check: EC50 of O=C(Cc1cc(Cl)cc(Cl)c1)N1CCCC(c2nc3ccccc3[nH]2)C1 (centres unmarked) [Compound 1732] ? > 5 µM

Find the recorded EC50 belonging to O=C(Cc1cc(Cl)cc(Cl)c1)N1CCC[C@@H](c2nc3cc(Cl)ccc3[nH]2)C1 [Compound 1757] and report it. > 10 µM

---

molecular target: MetRS (S. aureus) (Staphylococcus aureus, UniProt Q5HII6); experiment: biochemical; conditions: ATP depletion, Kinase-Glo; read-out: H) MetRS (S. aureus) ATP depletion assay using Kinase-Glo with modified cpd dilution method, IC50
Sequence (Q5HII6 whole entry): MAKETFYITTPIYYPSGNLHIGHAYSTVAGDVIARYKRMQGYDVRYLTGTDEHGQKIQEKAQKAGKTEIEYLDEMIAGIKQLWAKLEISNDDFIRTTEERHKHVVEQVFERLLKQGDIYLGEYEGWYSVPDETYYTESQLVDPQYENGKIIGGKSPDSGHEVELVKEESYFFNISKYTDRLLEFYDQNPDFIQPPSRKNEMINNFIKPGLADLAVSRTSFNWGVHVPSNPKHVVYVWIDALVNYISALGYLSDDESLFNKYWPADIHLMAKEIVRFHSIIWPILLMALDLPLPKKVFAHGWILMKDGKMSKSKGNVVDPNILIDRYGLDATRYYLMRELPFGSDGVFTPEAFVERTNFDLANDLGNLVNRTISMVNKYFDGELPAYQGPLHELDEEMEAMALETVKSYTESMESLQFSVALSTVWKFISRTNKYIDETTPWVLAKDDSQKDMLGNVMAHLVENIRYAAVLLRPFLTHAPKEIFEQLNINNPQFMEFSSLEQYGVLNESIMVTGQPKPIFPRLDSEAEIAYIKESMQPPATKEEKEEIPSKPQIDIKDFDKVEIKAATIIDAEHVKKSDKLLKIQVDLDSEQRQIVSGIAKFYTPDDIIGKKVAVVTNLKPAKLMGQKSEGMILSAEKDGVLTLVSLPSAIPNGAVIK
Listing of entries alongside the reported IC50.
Answer format: numeric, nM implied, no suffix.

Some solved entries appear below for comparison.
O=C(NCc1nc2ccccc2[nH]1)OCCc1ccc(Cl)cc1Cl ... 67
Oc1c(Cl)cc(Cl)cc1CN[C@H]1CCCN(c2nc3nc(Cl)ccc3[nH]2)C1 ... 1570
O=C(/C=C/Oc1ccc(Cl)cc1Cl)NCc1nc2ccccc2[nH]1 ... 27

Give recorded IC50 with MetRS (S. aureus) (Staphylococcus aureus, UniProt Q5HII6) for the following compound: Fc1ccc2nc(NCCCNc3cc(Cl)cc(Cl)c3)[nH]c2n1 928

Give the reported IC50 for O=C(Cc1cc(Cl)cc(Cl)c1)N1CCC[C@H](c2nc3cc(Cl)ccc3[nH]2)C1 (system: MetRS (S. aureus) (Staphylococcus aureus, UniProt Q5HII6)). 1040

Given the entry Clc1cc(Cl)cc(Cn2cc(Cc3nc4ccccc4[nH]3)nn2)c1 , what IC50 was observed with MetRS (S. aureus) (Staphylococcus aureus, UniProt Q5HII6)? 1100

---

Measured pEC50 values are reported for all entries that follow.
test system: T. brucei; assay: Growth inhibition assay of T. brucei cell cultures (Alamar Blue, 48 h); assay type: cell-based; settings: Trypanosoma brucei; read-out: B) T. brucei EC50
A value of pEC50 is the negative decimal logarithm of a concentration given in moles per litre.

Recorded results for 3 compounds are shown here.
Clc1ccc(CNC2CCCC(c3nc4nc(Cl)ccc4[nH]3)C2)c(Cl)c1 (centres unmarked) ... 6.09
Clc1ccc(CNC2CCCN(c3nc4nc(Cl)ccc4[nH]3)C2)c(Cl)c1 (centres unmarked) ... 5.83
Clc1ccc(CN2CCC[C@H](c3nc4cc(Cl)ccc4[nH]3)C2)c(Cl)c1 ... 5.87

// query pEC50 value for entry O=C(Nc1cccc(-c2nc3ccc(Cl)cc3[nH]2)c1)c1cc(Cl)cc(Cl)c1 6.04

Which measured pEC50 value corresponds to O=C(Cc1ccc(Cl)cc1Cl)NCc1nc2cnc(Cl)cc2[nH]1 ? 5.08

Tell me the measured pEC50 of CN(CCN(Cc1cc(Cl)cc(Cl)c1)C(=O)CCN)c1nc2nc(Cl)ccc2[nH]1 , please. 7.21

---

pIC50 data for MetRS (T. brucei) (Trypanosoma brucei brucei, UniProt Q38C91) follow.
// pIC50 here means minus log10 of the molar concentration (mol/L)

Example entries begin here.
Fc1ccc2[nH]c(N3CCCC(NCc4cc(Cl)cc(Cl)c4)C3)nc2n1 (centres unmarked) ... 7.85
Clc1ccc(CCNCc2nc3nc(Cl)ccc3[nH]2)c(Cl)c1 ... 7.48

pIC50 of Clc1cc(Cl)cc(CN[C@H]2CCCN(C3=NCc4ccccc4N3)C2)c1 on MetRS (T. brucei) (Trypanosoma brucei brucei, UniProt Q38C91)? 6.92

---

target: UniProt:Q38C91
measured-attribute: IC50 (nM)
Write the value in nM as a bare number.

N[C@@H](CC(=O)NCc1nc2ccccc2[nH]1)Cc1ccc(Cl)cc1Cl ... 70
Clc1ccc(CNC2CCCN(c3nc4nc(Cl)ccc4[nH]3)C2)c(Cl)c1 (stereo not drawn) ... 72

Moving on to the next compound.
May I ask what IC50 has been recorded for Clc1ccc(CN2CCC[C@H](c3nc4cc(Cl)ccc4[nH]3)C2)c(Cl)c1 ? 119

---

Entries and their pIC50 values follow.
target: MetRS (S. aureus) (Staphylococcus aureus)
# pIC50 = -log10(concentration in molar units)

Answered examples (2):
CN(CCN(Cc1cc(Cl)cc(Cl)c1)C(=O)CCN)c1nc2nc(Cl)ccc2[nH]1 ... 6.42
FC(F)(CNCc1cc(Cl)cc(Cl)c1)CNc1nc2cccnc2[nH]1 ... 7.06

Here is another compound to look at.
Can you look up the measured pIC50 of CN(CCN[C@@H]1CCNc2c(Cl)cc(Cl)cc21)c1nc2nc(Cl)ccc2[nH]1 for me? 6.86
